- assayed_target: Endoribonuclease Dicer (Homo sapiens)
- procedure_text: Dicer cleavage of pre-miR-21 blockers – biochemical, cat-ELCCA, chemiluminescence, primary screen (AID 1347074);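 note: plate controls were vehicle for no effect and no enzyme for full effect; higher signal means more uncleaved substrate so more Dicer inhibition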
- assay_conditions: cat-ELCCA pre-miR-21 Dicer processing, at 25 µM
About 2,800 (6%) of roughly 47,000 compounds were called active. Cut-off read from the data, not from the text of the source: active = z-score above about 3 (passing the limit was not always enough); inactive = the rest. What follows is part of a selection rich in actives, with near analogues and random picks from the rest.
One label from this list, please: t for active, f for inactive

compound	label_value
C=CCn1c(SCc2nc3ccccc3[nH]2)nnc1-c1ccccc1	t
O=C1/C(=C/c2ccc(Cl)cc2)CCC/C1=C\c1ccc(Cl)cc1	f
C=CCc1ccc(OCc2ccc(C(=O)OC)cc2)c(OC)c1	f
FC(F)(F)c1ccnc(NCCNc2nccc(C(F)(F)F)n2)c1	f

Problem: Which outcome was entered for the compound C=CCn1c(SCc2nnc(SCC(=O)c3ccc(Cl)cc3)o2)nnc1-c1ccccc1 in this test?
Result: f

Problem: Which outcome was entered for the compound O=C(CSc1nc2ccccc2nc1N1CCCC1)N1CCN(c2ccccc2)CC1 in this test?
Result: f

Problem: Which outcome was entered for the compound CCCCSC1=C(C#N)C(=O)NC(C)S1 (stereo not drawn) in this test?
Result: f

* * *

- assayed_target: Endoribonuclease Dicer (Homo sapiens) (UniProt Q9UPY3)
- Sequence (Q9UPY3 whole entry, looked up): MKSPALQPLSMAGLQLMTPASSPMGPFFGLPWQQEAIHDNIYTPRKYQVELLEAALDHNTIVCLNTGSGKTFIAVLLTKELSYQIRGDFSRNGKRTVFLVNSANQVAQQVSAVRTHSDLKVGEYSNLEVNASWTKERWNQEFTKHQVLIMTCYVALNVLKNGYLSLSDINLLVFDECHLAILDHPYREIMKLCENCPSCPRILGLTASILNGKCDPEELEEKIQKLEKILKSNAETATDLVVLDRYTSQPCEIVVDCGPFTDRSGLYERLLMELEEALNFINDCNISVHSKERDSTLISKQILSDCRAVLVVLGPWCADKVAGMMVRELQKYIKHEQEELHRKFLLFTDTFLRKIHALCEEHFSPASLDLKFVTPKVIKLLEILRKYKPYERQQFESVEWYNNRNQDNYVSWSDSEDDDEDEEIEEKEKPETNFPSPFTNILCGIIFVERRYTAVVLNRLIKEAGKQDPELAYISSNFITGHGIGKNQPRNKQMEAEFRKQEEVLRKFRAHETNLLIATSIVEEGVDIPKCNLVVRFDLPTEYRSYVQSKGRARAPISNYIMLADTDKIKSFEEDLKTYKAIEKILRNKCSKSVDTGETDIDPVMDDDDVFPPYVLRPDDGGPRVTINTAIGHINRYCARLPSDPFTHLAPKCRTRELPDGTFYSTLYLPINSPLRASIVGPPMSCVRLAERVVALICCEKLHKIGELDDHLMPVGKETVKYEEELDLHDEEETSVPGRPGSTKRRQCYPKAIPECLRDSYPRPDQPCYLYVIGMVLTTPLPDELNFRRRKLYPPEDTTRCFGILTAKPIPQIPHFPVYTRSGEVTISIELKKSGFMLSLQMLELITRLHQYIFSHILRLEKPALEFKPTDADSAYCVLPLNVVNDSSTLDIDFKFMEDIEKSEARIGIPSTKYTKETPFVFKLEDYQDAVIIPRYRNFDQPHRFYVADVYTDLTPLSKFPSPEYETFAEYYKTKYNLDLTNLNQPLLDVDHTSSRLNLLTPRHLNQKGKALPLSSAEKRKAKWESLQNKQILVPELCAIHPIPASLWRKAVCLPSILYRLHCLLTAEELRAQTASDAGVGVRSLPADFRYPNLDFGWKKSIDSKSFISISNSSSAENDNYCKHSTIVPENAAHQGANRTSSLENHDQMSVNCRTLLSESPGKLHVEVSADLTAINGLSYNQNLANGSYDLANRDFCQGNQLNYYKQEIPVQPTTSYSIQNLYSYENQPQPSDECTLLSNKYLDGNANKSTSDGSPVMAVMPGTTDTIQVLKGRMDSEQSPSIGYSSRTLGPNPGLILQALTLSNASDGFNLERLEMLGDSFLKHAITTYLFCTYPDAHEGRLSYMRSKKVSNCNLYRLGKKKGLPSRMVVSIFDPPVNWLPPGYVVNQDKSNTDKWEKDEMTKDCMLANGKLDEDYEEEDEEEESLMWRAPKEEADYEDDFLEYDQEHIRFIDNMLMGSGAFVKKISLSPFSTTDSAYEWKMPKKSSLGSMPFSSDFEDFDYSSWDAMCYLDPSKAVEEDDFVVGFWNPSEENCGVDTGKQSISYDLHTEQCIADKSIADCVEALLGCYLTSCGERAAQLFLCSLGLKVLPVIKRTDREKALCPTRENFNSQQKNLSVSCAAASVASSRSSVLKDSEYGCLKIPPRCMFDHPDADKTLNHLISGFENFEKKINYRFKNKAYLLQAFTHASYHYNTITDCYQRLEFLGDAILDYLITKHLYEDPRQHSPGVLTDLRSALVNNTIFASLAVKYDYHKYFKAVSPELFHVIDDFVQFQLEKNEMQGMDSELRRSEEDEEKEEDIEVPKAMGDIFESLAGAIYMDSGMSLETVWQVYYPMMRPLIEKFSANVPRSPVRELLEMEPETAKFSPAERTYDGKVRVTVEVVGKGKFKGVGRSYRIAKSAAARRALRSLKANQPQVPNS
- procedure_text: Dicer cleavage of pre-miR-21 blockers – biochemical, cat-ELCCA, chemiluminescence, primary screen (AID 1347074)
- assay_conditions: cat-ELCCA pre-miR-21 Dicer processing, at 25 µM, hits give high values
Hit rate of the full screen: of about 47,000 compounds, about 2,800 (6%) were called active. The list comes from a sample in which actives are over-represented; it also holds close analogues and randomly drawn compounds.
Tick true (1) if z-score is 1 or greater. Tick false (0) if z-score is less than 1.

// known answers, use as guide
compound	label_value
Cc1ccc(C2Nc3cccc4cccc(c34)N2)cc1	true (1)
CCOc1ccc(-c2cc(O)cc3sc(=O)oc23)cc1	true (1)

Problem: Item O=C(CN1C(=O)/C(=C/c2ccccc2Cl)N=C1c1ccccc1)c1ccccc1 with z-score of 1 or above?
Result: false (0)

Problem: Item O=C1CC(c2nc3ccccc3n2Cc2ccc(F)cc2)CN1c1ccccc1 (configuration not stated) with z-score of 1 or above?
Result: true (1)

Problem: Item O=C(c1cccnc1)N(c1cc2sc(=O)oc2c2ccccc12)S(=O)(=O)c1ccccc1 with z-score of 1 or above?
Result: false (0)

Problem: Item Cn1c(=O)c2c(nc(NCCc3ccccc3)n2Cc2ccccc2)n(C)c1=O with z-score of 1 or above?
Result: false (0)

Problem: Item O=C(O)CCC(=O)c1ccc2ccccc2c1 with z-score of 1 or above?
Result: false (0)

Problem: Item Cn1c(=O)c(C#N)c(O)c2ccccc21 with z-score of 1 or above?
Result: false (0)

Problem: Item O=C(C1Sc2nnc(-c3ccccc3)n2NC1c1ccc(F)cc1)N1CCOCC1 (configuration not stated) with z-score of 1 or above?
Result: true (1)

Problem: Item COc1ccc(S(=O)(=O)N(C(=O)c2ccncc2)c2ccc3oc(=O)sc3c2)cc1OC with z-score of 1 or above?
Result: true (1)

Problem: Item O=C1c2oc3ccccc3c(=O)c2C(c2ccccc2F)N1c1nncs1 (configuration not stated) with z-score of 1 or above?
Result: false (0)

Problem: Item C=CCn1c(Oc2ccccc2Cl)nc2c1c(=O)n(C)c(=O)n2C with z-score of 1 or above?
Result: false (0)

Problem: Item COc1ccc(Cl)cc1NC(=O)CSc1nc2ncccc2[nH]1 with z-score of 1 or above?
Result: true (1)

Problem: Item CCc1ccc(S(=O)(=O)Nc2cc(Cl)c3oc(=O)sc3c2)cc1 with z-score of 1 or above?
Result: true (1)

Problem: Item Oc1ccc(C2Nc3cccc4cccc(c34)N2)cc1 with z-score of 1 or above?
Result: false (0)

Problem: Item CCOC(=O)C1=C(N)Oc2c(Br)cc(Cl)cc2C1C(C#N)C(=O)OCC (configuration not stated) with z-score of 1 or above?
Result: true (1)

Problem: Item O=c1c(-c2ccccc2)coc2cc(O)ccc12 with z-score of 1 or above?
Result: true (1)

Problem: Item CC(=O)Nc1ccc(C(=O)CSc2nc3nc(C)cc(C)c3c(=O)[nH]2)cc1 with z-score of 1 or above?
Result: false (0)

Problem: Item Cn1c2c(c(=O)n(C)c1=O)C(C(=O)Nc1ccc(Cl)cc1)CC(=O)N2 (configuration not stated) with z-score of 1 or above?
Result: true (1)

Problem: Item N#Cc1cn(Cc2ccccc2Cl)c(=O)[nH]c1=O with z-score of 1 or above?
Result: false (0)

Problem: Item NC1=NC(c2cc(F)cc(F)c2)n2c(nc3ccccc32)N1 (configuration not stated) with z-score of 1 or above?
Result: false (0)

* * *

Listing of recorded z-score by entry.
- assayed_target: Endoribonuclease Dicer (Homo sapiens) (UniProt Q9UPY3)
- procedure_text: Dicer cleavage of pre-miR-21 blockers – biochemical, cat-ELCCA, chemiluminescence, primary screen (AID 1347074);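 note: plate controls were vehicle for no effect and no enzyme for full effect; higher signal means more uncleaved substrate so more Dicer inhibition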
- assay_conditions: cat-ELCCA pre-miR-21 Dicer processing, at 25 µM, hits give high values
About 2,800 (6%) of roughly 47,000 compounds were called active. The entries come from a sample that favours actives as a whole.

Some compounds with recorded z-score:
compound	observed_result
S=C(N/N=C/c1ccc(Cl)cc1)Nc1cc(Cl)ccc1Cl	-0.45 (inactive)
Cc1ccc(C(=O)CSc2nnc(-c3ccccc3)n2C)cc1	8.7 (inactive)
CCOc1ccccc1C1C2=C(CCCC2=O)Nc2nnnn21 (stereo not drawn)	2.2 (inactive)
O=C(O)c1ccccc1/C=N/Nc1cc(Cl)ccc1Cl	5.07 (active)
COc1ccc2cccc(OC)c2n1	-1.05 (inactive)
CN(C)/C=C1\C(=O)c2ccc(Cl)cc2N(Cc2c(F)cccc2Cl)S1(=O)=O	-0.82 (inactive)

We next turn to a different compound, shown below.
Short answer for CCOC(=O)c1cnn2c1nc(Oc1cc(C(F)(F)F)cc(C(F)(F)F)c1)c1ccccc12 : z-score was -0.15 (inactive)

* * *

- assayed_target: Endoribonuclease Dicer (Homo sapiens)
- procedure_text: Dicer cleavage of pre-miR-21 blockers – biochemical, cat-ELCCA, chemiluminescence, primary screen (AID 1347074);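 note: plate controls were vehicle for no effect and no enzyme for full effect; higher signal means more uncleaved substrate so more Dicer inhibition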
- assay_conditions: cat-ELCCA pre-miR-21 Dicer processing, at 25 µM, hits give high values
Hit rate of the full screen: of about 47,000 compounds, about 2,800 (6%) were called active. Shown is part of a subset that was picked to be rich in actives.
reported_endpoint: z-score
Answer field: number only, no words.

compound	z-score
CN(C)c1ccc(C2/C(=C(/O)c3ccccc3)C(=O)C(=O)N2CCO)cc1 (configuration not stated)	-1.23

Short answer for Oc1c(Cl)cc(Cl)c(Cl)c1Cc1c(O)c(Cl)cc(Cl)c1Cl : z-score was 13.8

Short answer for N#CC1=C(N)Oc2cc(O)ccc2C1c1cccc(Br)c1 (configuration not stated) : z-score was -2.59

Short answer for O=C(CSc1nc2c(c(C(F)(F)F)n1)CCc1ccccc1-2)N1CCOCC1 : z-score was 0.53

Short answer for COc1cccc(/C=N/NC(=O)c2cc(C)nc3ccc(Br)cc23)c1O : z-score was 2.93

Short answer for COC(=O)/C=C(\Nc1ccccc1Oc1ccc(Cl)cc1Cl)C(=O)OC : z-score was 2.01

* * *

- assayed_target: Endoribonuclease Dicer (Homo sapiens)
- procedure_text: Dicer cleavage of pre-miR-21 blockers – biochemical, cat-ELCCA, chemiluminescence, primary screen (AID 1347074);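 note: plate controls were vehicle for no effect and no enzyme for full effect; higher signal means more uncleaved substrate so more Dicer inhibition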
- assay_conditions: cat-ELCCA pre-miR-21 Dicer processing, at 25 µM, hits give high values
The whole screen tested about 47,000 compounds, of which about 2,800 (6%) were called active. Only a selection was taken, and actives are over-represented in it overall.
reported_endpoint: z-score
Answer field: number only, no words.

molecule	reported_endpoint	observed_result
Cc1[nH]nc(NCc2ccccc2)c1[N+](=O)[O-]	z-score	-1.14
COc1ccc(-c2cc(C(F)(F)F)nc(SCC(=O)NC3CCCC3)n2)cc1OC	z-score	1.64
CN(C)NC(=O)c1csnc1-c1c(Cl)cccc1Cl	z-score	3.48
O=S(=O)(c1cc(Cl)c(Cl)cc1Cl)N1CCc2[nH]c3ccc(F)cc3c2C1	z-score	-0.85
c1ccc(-c2cc(-c3ccccc3)[nH]n2)cc1	z-score	0.74

Short answer for N#Cc1cccc(CSc2ncnc(N)n2)c1 : z-score was 3.87

Short answer for COC(=O)C1=C(c2ccccc2)C(c2ccccc2)=C(C(=O)OC)C1=O : z-score was 3.2

Short answer for NC(=S)N/N=C/c1ccc(Cl)c(Cl)c1 : z-score was -1.14

Short answer for CCCCC1(C2CC(=O)N(c3ccccc3)C2=O)C(=O)N(c2ccccc2)N(c2ccccc2)C1=O (centres undefined) : z-score was 1.04

Short answer for O=C(O)CSCC(=O)Nc1ccccc1Sc1ncnc2cc(-c3ccccc3)sc12 : z-score was -0.26

Short answer for CCCCNC(=O)Nc1onc(-c2c(Cl)cccc2Cl)c1C(=O)OC : z-score was 0.02
